target: CD28 (human) (UniProt P10747); assay: flow cytometry, Jurkat cells (CD28)
reportedMetric: Fold change to WT CD80

Consider the worked cases shown below.
variant CD80 IgV-Fc H18Y/V68M/A71G/D90G (Fc fusion) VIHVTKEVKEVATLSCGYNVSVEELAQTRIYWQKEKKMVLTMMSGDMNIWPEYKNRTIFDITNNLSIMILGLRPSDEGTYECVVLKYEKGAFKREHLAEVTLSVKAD | 77.8 fold
variant CD80 IgV-Fc E35D/M47L/A71G/D90G (Fc fusion) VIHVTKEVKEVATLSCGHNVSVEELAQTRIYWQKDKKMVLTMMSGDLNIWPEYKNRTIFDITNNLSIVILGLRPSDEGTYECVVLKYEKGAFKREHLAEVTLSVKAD | 30.3 fold
variant CD80 IgV-Fc H18Y/A26E/E35D/M47L (Fc fusion) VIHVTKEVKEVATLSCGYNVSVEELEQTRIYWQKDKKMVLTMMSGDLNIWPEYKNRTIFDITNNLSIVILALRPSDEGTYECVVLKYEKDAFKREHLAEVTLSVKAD | 7.4 fold
variant CD80 IgV-Fc H18Y/E35D/A71G/D90G (Fc fusion) VIHVTKEVKEVATLSCGYNVSVEELAQTRIYWQKDKKMVLTMMSGDMNIWPEYKNRTIFDITNNLSIVILGLRPSDEGTYECVVLKYEKGAFKREHLAEVTLSVKAD | 29.8 fold
CD80 T13R/Q33R/E35D/M47L/V68M IgV-Fc (Fc fusion) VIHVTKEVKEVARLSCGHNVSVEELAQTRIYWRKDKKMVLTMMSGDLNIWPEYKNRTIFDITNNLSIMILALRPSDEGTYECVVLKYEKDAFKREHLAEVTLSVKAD | 0.4 fold
variant CD80 IgV-Fc H18Y/A26E/M47L/D90G (Fc fusion) VIHVTKEVKEVATLSCGYNVSVEELEQTRIYWQKEKKMVLTMMSGDLNIWPEYKNRTIFDITNNLSIVILALRPSDEGTYECVVLKYEKGAFKREHLAEVTLSVKAD | 65.1 fold

Qu. Please give the documented Fold change to WT CD80 of CD80 T13R/Q33R/E35D/M38I/M47L/V68M/E95V/L97Q IgV-Fc (Fc fusion) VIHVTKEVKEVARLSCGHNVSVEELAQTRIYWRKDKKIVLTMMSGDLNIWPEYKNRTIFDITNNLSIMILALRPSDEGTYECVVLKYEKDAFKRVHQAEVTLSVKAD
Ans. 35.4 fold

Qu. Please give the documented Fold change to WT CD80 of variant CD80 IgV-Fc A26E/M47L/A71G/D90G (Fc fusion) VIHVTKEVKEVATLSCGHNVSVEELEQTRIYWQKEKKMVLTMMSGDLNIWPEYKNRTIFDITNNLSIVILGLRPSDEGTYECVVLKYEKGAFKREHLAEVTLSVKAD
Ans. 44.5 fold
